B1: TNXB (parent)
chain: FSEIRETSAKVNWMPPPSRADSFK

Variants of: B1
Experiment: protein stability index of a GFP-peptide fusion (GPS, HEK-293T) (PSI 1-6); higher = more stable;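 note: lentivirally expressed fusions sorted by FACS into six bins by GFP to DsRed ratio, PSI derived from sequencing read proportions per bin multiplied by bin number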
Details: c terminus: a fixed tail appended
# Lookup of reported protein stability index keyed by entry
measurement.label: protein stability index

• R19F = 2.49
• F23Q = 3.58
• P15Q = 3.36
• D21W = 2.45
• P15L = 3.21
• S2N = 4.04
• R19I = 3.12
• F23P = 4.55
• D21A = 3.17
• K10C = 3
• F1S = 4.48
• S18T = 3.16
• S8E = 3.5
• P16G = 2.8
• E6A = 3.31
• A20D = 3.88
• M14Y = 2.64
• P16L = 3.02
• N12V = 1.95
• P15M = 3.27
• R5T = 3.87
• P15R = 3.21
• T7N = 3.37
• E3D = 3.37
• D21M = 3.41
• M14K = 3.52
• M14N = 3.4
• K24G = 3.35
• N12P = 3.17
• R19M = 3.12
• P15H = 3.42
• I4S = 4.01
• A9K = 3
• P16M = 2.89
• S22N = 3.38
• V11F = 2.97
• F1N = 4.63
• T7G = 3.14
• V11Q = 3.65
• K10N = 2.94
• P15D = 3.85
• S22F = 2.39
• F1D = 5.04
• I4N = 3.51
• S18H = 3.3
• A20K = 3.8
• A9F = 2.2
• D21N = 3.34
• S8T = 3.63
• D21T = 2.6
• F23H = 4.12
• R5M = 3.48
• T7R = 3.3
• W13Y = 4.06
